Species: Bos taurus
Assay explanation: Inhibition of [3H]colchicine binding to bovine brain tubulin at 5 uM after 10 mins by scintillation counting method relative to control
Endpoint name: inhibition (%)
Numeric only. Scale: %

-- ask Fill in: inhibition of COc1ccc(C(=O)c2cc(OC)c(OC)c(OC)c2)cc1OC(C)c1ccc([N+](=O)[O-])o1 (configuration not stated) is ___
-- reply 16

-- ask Fill in: inhibition of COc1ccc(C(=O)c2cc(OC)c(OC)c(OC)c2)cc1O is ___
-- reply 85

-- ask Fill in: inhibition of COc1ccc(C(=O)c2cc(OC)c(OC)c(OC)c2)cc1OC(C)c1ccc([N+](=O)[O-])cc1 (configuration not stated) is ___
-- reply 5.8

-- ask Fill in: inhibition of COc1ccc(C(=O)c2cc(OC)c(OC)c(OC)c2)cc1OC(C)(C)c1ccc([N+](=O)[O-])s1 is ___
-- reply 16

-- ask Fill in: inhibition of COc1ccc(C(=O)c2cc(OC)c(OC)c(OC)c2)cc1OC(C)(C)c1ccc([N+](=O)[O-])o1 is ___
-- reply 13

-- ask Fill in: inhibition of COc1ccc(C(=O)c2cc(OC)c(OC)c(OC)c2)cc1OCc1ccc([N+](=O)[O-])cc1 is ___
-- reply 11

-- ask Fill in: inhibition of COc1ccc(C(=O)c2cc(OC)c(OC)c(OC)c2)cc1OCc1ccc([N+](=O)[O-])o1 is ___
-- reply 17

-- ask Fill in: inhibition of COc1ccc(C(=O)c2cc(OC)c(OC)c(OC)c2)cc1OC(C)c1ccc([N+](=O)[O-])s1 (configuration not stated) is ___
-- reply 15

-- ask Fill in: inhibition of COc1ccc(C(=O)c2cc(OC)c(OC)c(OC)c2)cc1OCc1ccc([N+](=O)[O-])s1 is ___
-- reply 19

-- ask Fill in: inhibition of COc1ccc(C(=O)c2cc(OC)c(OC)c(OC)c2)cc1OCc1cnc([N+](=O)[O-])n1C is ___
-- reply 7.1

-- ask Fill in: inhibition of COc1ccc(C(=O)c2cc(OC)c(OC)c(OC)c2)cc1OC(C)(C)c1ccc([N+](=O)[O-])cc1 is ___
-- reply 8.8

-- ask Fill in: inhibition of COc1ccc(C(=O)c2cc(OC)c(OC)c(OC)c2)cc1OC(C)c1cnc([N+](=O)[O-])n1C (configuration not stated) is ___
-- reply 11

---

Assayed system: NADPH--cytochrome P450 reductase (P450 oxidoreductase) (Rattus norvegicus)
Sequence (P00388 whole entry): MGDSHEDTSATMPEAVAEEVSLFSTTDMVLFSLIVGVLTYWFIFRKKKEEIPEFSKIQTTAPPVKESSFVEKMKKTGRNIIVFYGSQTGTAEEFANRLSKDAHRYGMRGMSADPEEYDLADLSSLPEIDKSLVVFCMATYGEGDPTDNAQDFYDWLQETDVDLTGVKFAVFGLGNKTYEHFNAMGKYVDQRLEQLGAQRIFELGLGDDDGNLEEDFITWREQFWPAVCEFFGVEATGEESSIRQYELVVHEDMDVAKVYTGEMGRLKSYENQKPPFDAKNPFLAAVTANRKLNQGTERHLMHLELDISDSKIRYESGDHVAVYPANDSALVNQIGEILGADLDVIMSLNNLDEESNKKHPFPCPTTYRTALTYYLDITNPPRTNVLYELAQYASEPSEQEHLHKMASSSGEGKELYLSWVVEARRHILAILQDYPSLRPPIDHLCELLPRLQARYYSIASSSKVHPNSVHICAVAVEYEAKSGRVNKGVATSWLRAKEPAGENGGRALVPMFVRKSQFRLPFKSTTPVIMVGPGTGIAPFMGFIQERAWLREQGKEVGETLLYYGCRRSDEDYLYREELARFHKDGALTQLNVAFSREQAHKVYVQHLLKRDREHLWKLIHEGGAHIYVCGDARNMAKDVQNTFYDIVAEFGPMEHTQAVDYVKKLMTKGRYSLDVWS
Assay explanation: Drug metabolism in pH 7.4 PBS assessed as rat P450 oxidoreductase-mediated compound hydrolysis preincubated for 20 mins followed by protocatechuate 3,4-dioxygenase addition to create anoxic condition and subsequent addition of P450 oxidoreductase in presence of NADPH after 24 hrs by HPLC method
Assay type: ADME
Condition: rat P450 oxidoreductase with NADPH in PBS, read-out: Drug metabolism
Endpoint name: metabolised at 24 h

-- ask Fill in: metabolised at 24 h of COc1ccc(C(=O)c2cc(OC)c(OC)c(OC)c2)cc1OC(C)(C)c1ccc([N+](=O)[O-])cc1 is ___
-- reply 0%

-- ask Fill in: metabolised at 24 h of COc1ccc(C(=O)c2cc(OC)c(OC)c(OC)c2)cc1OC(C)(C)c1ccc([N+](=O)[O-])o1 is ___
-- reply 100%

-- ask Fill in: metabolised at 24 h of COc1ccc(C(=O)c2cc(OC)c(OC)c(OC)c2)cc1OC(C)(C)c1ccc([N+](=O)[O-])s1 is ___
-- reply 100%
